B1: library; a variant is named by its letters at N, in order (parent)
chain: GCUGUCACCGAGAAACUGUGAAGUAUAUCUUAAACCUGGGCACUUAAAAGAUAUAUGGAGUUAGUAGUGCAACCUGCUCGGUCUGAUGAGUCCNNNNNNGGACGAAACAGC

Variants of: B1
Experiment: normalized RNA/DNA level with ligand (relative to sTRSVctl = 100) (log10 (% of sTRSVctl)); HEK293T; ligand: cyclic di-GMP (c-di-GMP-II aptamer); ligand concentration (+) RNA-Seq: 1 mM; higher = less ribozyme self-cleavage, higher mRNA level
Conditions: reporter: mCherry (pCS4076), ligand present: yes
assay.endpoint: normalized RNA/DNA level with ligand (log10)

polymer.sequence	observed.measurement
GCUGUCACCGAGAAACUGUGAAGUAUAUCUUAAACCUGGGCACUUAAAAGAUAUAUGGAGUUAGUAGUGCAACCUGCUCGGUCUGAUGAGUCCAGGUCUGGACGAAACAGC	1.85
GCUGUCACCGAGAAACUGUGAAGUAUAUCUUAAACCUGGGCACUUAAAAGAUAUAUGGAGUUAGUAGUGCAACCUGCUCGGUCUGAUGAGUCCAGUACCGGACGAAACAGC	1.86
GCUGUCACCGAGAAACUGUGAAGUAUAUCUUAAACCUGGGCACUUAAAAGAUAUAUGGAGUUAGUAGUGCAACCUGCUCGGUCUGAUGAGUCCUUCCAAGGACGAAACAGC	1.84
GCUGUCACCGAGAAACUGUGAAGUAUAUCUUAAACCUGGGCACUUAAAAGAUAUAUGGAGUUAGUAGUGCAACCUGCUCGGUCUGAUGAGUCCGAAUAGGGACGAAACAGC	1.78
GCUGUCACCGAGAAACUGUGAAGUAUAUCUUAAACCUGGGCACUUAAAAGAUAUAUGGAGUUAGUAGUGCAACCUGCUCGGUCUGAUGAGUCCGGCAGGGGACGAAACAGC	1.83
GCUGUCACCGAGAAACUGUGAAGUAUAUCUUAAACCUGGGCACUUAAAAGAUAUAUGGAGUUAGUAGUGCAACCUGCUCGGUCUGAUGAGUCCACCUUGGGACGAAACAGC	1.81
GCUGUCACCGAGAAACUGUGAAGUAUAUCUUAAACCUGGGCACUUAAAAGAUAUAUGGAGUUAGUAGUGCAACCUGCUCGGUCUGAUGAGUCCUCGCCAGGACGAAACAGC	1.88
GCUGUCACCGAGAAACUGUGAAGUAUAUCUUAAACCUGGGCACUUAAAAGAUAUAUGGAGUUAGUAGUGCAACCUGCUCGGUCUGAUGAGUCCCCUAGAGGACGAAACAGC	1.79
GCUGUCACCGAGAAACUGUGAAGUAUAUCUUAAACCUGGGCACUUAAAAGAUAUAUGGAGUUAGUAGUGCAACCUGCUCGGUCUGAUGAGUCCAGCCACGGACGAAACAGC	1.86
GCUGUCACCGAGAAACUGUGAAGUAUAUCUUAAACCUGGGCACUUAAAAGAUAUAUGGAGUUAGUAGUGCAACCUGCUCGGUCUGAUGAGUCCUUGGGGGGACGAAACAGC	1.78
GCUGUCACCGAGAAACUGUGAAGUAUAUCUUAAACCUGGGCACUUAAAAGAUAUAUGGAGUUAGUAGUGCAACCUGCUCGGUCUGAUGAGUCCCGCGGUGGACGAAACAGC	1.87

Hello, the source for this data is the supplement of paper PMC6757056, in case you need it.
